# Test system: K98450-129-R-PDC multicell spheroids, viability
# protocol-description: Anticancer human tumor K98450-129-R-PDC patient-derived colon adenocarcinoma cell line growth inhibition [PI3K]
# assay-setup: second compound 1 µM; first compound 0.001 µM; stronger effect = lower value
assay-endpoint: viability, T/C (%)
Enter your answer as a number in %; do not include the unit.

>>> data_value("CC(C)n1nc(-c2ccc3oc(N)nc3c2)c2c(N)ncnc21 + CC(Nc1ccc2c(c1)OCCn1cc(N3C(=O)OCC3C(F)F)nc1-2)C(N)=O")
89.7

INPUT: Report viability, T/C for CC(=O)c1c(C)c2cnc(Nc3ccc(N4CCNCC4)cn3)nc2n(C2CCCC2)c1=O + Cc1nc(NC(=O)N2CCCC2C(N)=O)sc1-c1ccnc(C(C)(C)C(F)(F)F)c1 please.
OUTPUT: 92.9

###

Listed here: items and their measured viability, T/C.
# Tested on: K98450-129-R-PDC multicell spheroids, viability
# protocol-description: Anticancer human tumor K98450-129-R-PDC cell line growth inhibition [PI3K];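 further: spheroids exposed to agents for seven days before read-out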
# assay-setup: second compound 0.0316 µM; first compound 3.16 µM; stronger effect = lower value
Enter your answer as a number in %; do not include the unit.

# annotated cases, reported viability, T/C shown
>>> data_value("CC1(C)CCC(CN2CCN(c3ccc(C(=O)NS(=O)(=O)c4ccc(NCC5CCOCC5)c([N+](=O)[O-])c4)c(Oc4cnc5[nH]ccc5c4)c3)CC2)=C(c2ccc(Cl)cc2)C1 + COc1c(OCCCN2CCOCC2)ccc2c3n(c(=NC(=O)c4cnc(N)nc4)nc12)CCN3")
96.8
>>> data_value("CC(Cn1ccc(-c2ccc(C#N)c(Cl)c2)n1)NC(=O)c1cc(C(C)O)[nH]n1 (stereo unspecified) + CC(Nc1ncnc2nc[nH]c12)c1cc2cccc(Cl)c2c(=O)n1-c1ccccc1")
102
>>> data_value("CC(C)NCC(C(=O)N1CCN(c2ncnc3c2C(C)CC3O)CC1)c1ccc(Cl)cc1 (stereo unspecified) + CC(Nc1ccc2c(c1)OCCn1cc(N3C(=O)OCC3C(F)F)nc1-2)C(N)=O")
109
>>> data_value("CNC(=O)c1ccc(N2C(=S)N(c3ccc(C#N)c(C(F)(F)F)c3)C(=O)C2(C)C)cc1F + CC(Nc1ncnc2nc[nH]c12)c1cc2cccc(Cl)c2c(=O)n1-c1ccccc1")
104
>>> data_value("CC1(C)CCC(Nc2ncc(C(F)(F)F)c(-c3c[nH]c4c(P(C)(C)=O)c(C#N)ccc34)n2)CN1 (stereo unspecified) + CC(Nc1ncnc2nc[nH]c12)c1cc2cccc(Cl)c2c(=O)n1-c1ccccc1")
66.2

INPUT: Hello, I am looking for reported viability, T/C with K98450-129-R-PDC multicell spheroids, viability for CC1(C)CCC(Nc2ncc(C(F)(F)F)c(-c3c[nH]c4c(P(C)(C)=O)c(C#N)ccc34)n2)CN1 (stereo unspecified) + Cc1nc(NC(=O)N2CCCC2C(N)=O)sc1-c1ccnc(C(C)(C)C(F)(F)F)c1 . Could you help?
OUTPUT: 69.8

###

Listed here: items and their measured viability, T/C.
# Tested on: K98450-129-R-PDC multicell spheroids, viability
# protocol-description: Anticancer human tumor K98450-129-R-PDC cell line growth inhibition [PI3K];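 further: spheroids exposed to agents for seven days before read-out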
# assay-setup: second compound 0.01 µM; first compound 3.16 µM; stronger effect = lower value

# annotated cases, reported viability, T/C shown
>>> data_value("C=CC(=O)N1CCN(c2nc(=O)n(-c3c(C)ccnc3C(C)C)c3nc(-c4c(O)cccc4F)c(F)cc23)C(C)C1 (stereo not given) + COc1c(OCCCN2CCOCC2)ccc2c3n(c(=NC(=O)c4cnc(N)nc4)nc12)CCN3")
"57.1%"
>>> data_value("CC1(C)CCC(CN2CCN(c3ccc(C(=O)NS(=O)(=O)c4ccc(NCC5CCOCC5)c([N+](=O)[O-])c4)c(Oc4cnc5[nH]ccc5c4)c3)CC2)=C(c2ccc(Cl)cc2)C1 + CC(Nc1ccc2c(c1)OCCn1cc(N3C(=O)OCC3C(F)F)nc1-2)C(N)=O")
"103%"
>>> data_value("CCCS(=O)(=O)Nc1ccc(F)c(C(=O)c2c[nH]c3ncc(-c4ccc(Cl)cc4)cc23)c1F + COc1c(OCCCN2CCOCC2)ccc2c3n(c(=NC(=O)c4cnc(N)nc4)nc12)CCN3")
"93.9%"
>>> data_value("Cn1ncc(Cl)c1-c1cc(C(=O)NC(CN)Cc2cccc(F)c2)sc1Cl (stereo not given) + COc1c(OCCCN2CCOCC2)ccc2c3n(c(=NC(=O)c4cnc(N)nc4)nc12)CCN3")
"78.9%"

INPUT: Report viability, T/C for C#Cc1c(F)ccc2cc(O)cc(-c3ncc4c(N5CC6CCC(C5)N6)nc(OCC56CCCN5CC(F)C6)nc4c3F)c12 (stereo not given) + COc1c(OCCCN2CCOCC2)ccc2c3n(c(=NC(=O)c4cnc(N)nc4)nc12)CCN3 please.
OUTPUT: 100%

###

# Tested on: K98450-129-R-PDC multicell spheroids, viability
# protocol-description: Anticancer human tumor K98450-129-R-PDC cell line growth inhibition [PI3K];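 further: spheroids exposed to agents for seven days before read-out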
# assay-setup: second compound 1 µM; first compound 0.0316 µM; stronger effect = lower value
Define the label as 1 when viability, T/C is strictly less than 90% and as -1 in all remaining cases.

Look over these answered cases.
>>> label("C[C@@H](NC(=O)c1ncnc(N)c1Cl)c1ncc(C(=O)Nc2cc(C(F)(F)F)c(Cl)cn2)s1 + CC(Nc1ccc2c(c1)OCCn1cc(N3C(=O)OCC3C(F)F)nc1-2)C(N)=O")
1
>>> label("CNC(=O)c1ccc(N2C(=S)N(c3ccc(C#N)c(C(F)(F)F)c3)C(=O)C2(C)C)cc1F + CC(Nc1ccc2c(c1)OCCn1cc(N3C(=O)OCC3C(F)F)nc1-2)C(N)=O")
1
>>> label("Cn1nccc1Nc1nccc(-c2ccn(C(CO)c3ccc(Cl)c(F)c3)c(=O)c2)n1 (stereo unspecified) + COc1c(OCCCN2CCOCC2)ccc2c3n(c(=NC(=O)c4cnc(N)nc4)nc12)CCN3")
1

INPUT: Threshold test, viability, T/C < 90%: C=CC(=O)N1CCN(c2nc(=O)n(-c3c(C)ccnc3C(C)C)c3nc(-c4c(O)cccc4F)c(F)cc23)C(C)C1 (stereo unspecified) + CC(Nc1ccc2c(c1)OCCn1cc(N3C(=O)OCC3C(F)F)nc1-2)C(N)=O
OUTPUT: 1

INPUT: CNC(=O)c1ccc(N2C(=S)N(c3ccc(C#N)c(C(F)(F)F)c3)C(=O)C2(C)C)cc1F + COc1c(OCCCN2CCOCC2)ccc2c3n(c(=NC(=O)c4cnc(N)nc4)nc12)CCN3 , same question.
OUTPUT: 1

INPUT: Cn1ncnc1[C@H]1c2n[nH]c(=O)c3cc(F)cc(c23)N[C@@H]1c1ccc(F)cc1 + Cc1nc(NC(=O)N2CCCC2C(N)=O)sc1-c1ccnc(C(C)(C)C(F)(F)F)c1 , same question.
OUTPUT: -1

###

# Tested on: K98450-129-R-PDC multicell spheroids, viability
# protocol-description: Anticancer human tumor K98450-129-R-PDC cell line growth inhibition [PI3K];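 further: spheroids exposed to agents for seven days before read-out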
# assay-setup: second compound 1 µM; first compound 1 µM; stronger effect = lower value
Define the label as YES when viability, T/C is strictly less than 80% and as NO in all remaining cases.

Look over these answered cases.
>>> label("CNC(=O)c1ccc(N2C(=S)N(c3ccc(C#N)c(C(F)(F)F)c3)C(=O)C2(C)C)cc1F + COc1c(OCCCN2CCOCC2)ccc2c3n(c(=NC(=O)c4cnc(N)nc4)nc12)CCN3")
"YES"
>>> label("C[C@@H](NC(=O)c1ncnc(N)c1Cl)c1ncc(C(=O)Nc2cc(C(F)(F)F)c(Cl)cn2)s1 + CC(Nc1ncnc2nc[nH]c12)c1cc2cccc(Cl)c2c(=O)n1-c1ccccc1")
"NO"
>>> label("C#Cc1c(F)ccc2cc(O)cc(-c3ncc4c(N5CC6CCC(C5)N6)nc(OCC56CCCN5CC(F)C6)nc4c3F)c12 (stereo not given) + CC(Nc1ncnc2nc[nH]c12)c1cc2cccc(Cl)c2c(=O)n1-c1ccccc1")
"NO"
>>> label("C#Cc1c(F)ccc2cc(O)cc(-c3ncc4c(N5CC6CCC(C5)N6)nc(OCC56CCCN5CC(F)C6)nc4c3F)c12 (stereo not given) + CC(Nc1ccc2c(c1)OCCn1cc(N3C(=O)OCC3C(F)F)nc1-2)C(N)=O")
"NO"

With those in mind, consider the next compound.
INPUT: Threshold test, viability, T/C < 80%: CCCS(=O)(=O)Nc1ccc(F)c(C(=O)c2c[nH]c3ncc(-c4ccc(Cl)cc4)cc23)c1F + CC(Nc1ncnc2nc[nH]c12)c1cc2cccc(Cl)c2c(=O)n1-c1ccccc1
OUTPUT: NO

###

Listed here: items and their measured viability, T/C.
# Tested on: K98450-129-R-PDC multicell spheroids, viability
# protocol-description: Anticancer human tumor K98450-129-R-PDC cell line growth inhibition [PI3K];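 further: spheroids exposed to agents for seven days before read-out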
# assay-setup: second compound 1 µM; first compound 1 µM; stronger effect = lower value
# From the text: Combinatorial screen of targeted agents with the PI3K inhibitors inavolisib, alpelisib, duvelisib, and copanlisib in multi-cell type tumor spheroids A high-throughput screen of multi-cell type tumor spheroids was designed to identify active combinations of targeted small molecules and PI3K pathway inhibitors. […] Compounds. […] If the clinical Cmax for an agent had not been determined, the highest concentration tested was 10 microM. […]
Enter your answer as a number in %; do not include the unit.

>>> data_value("CC(C)NCC(C(=O)N1CCN(c2ncnc3c2C(C)CC3O)CC1)c1ccc(Cl)cc1 (stereo unspecified) + COc1c(OCCCN2CCOCC2)ccc2c3n(c(=NC(=O)c4cnc(N)nc4)nc12)CCN3")
45.2
>>> data_value("CNC(=O)c1ccc(N2C(=S)N(c3ccc(C#N)c(C(F)(F)F)c3)C(=O)C2(C)C)cc1F + CC(Nc1ccc2c(c1)OCCn1cc(N3C(=O)OCC3C(F)F)nc1-2)C(N)=O")
92.1
>>> data_value("CC(Cn1ccc(-c2ccc(C#N)c(Cl)c2)n1)NC(=O)c1cc(C(C)O)[nH]n1 (stereo unspecified) + Cc1nc(NC(=O)N2CCCC2C(N)=O)sc1-c1ccnc(C(C)(C)C(F)(F)F)c1")
88.8

INPUT: Report viability, T/C for CC(Cn1ccc(-c2ccc(C#N)c(Cl)c2)n1)NC(=O)c1cc(C(C)O)[nH]n1 (stereo unspecified) + COc1c(OCCCN2CCOCC2)ccc2c3n(c(=NC(=O)c4cnc(N)nc4)nc12)CCN3 please.
OUTPUT: 52.1

INPUT: CC1(C)CCC(CN2CCN(c3ccc(C(=O)NS(=O)(=O)c4ccc(NCC5CCOCC5)c([N+](=O)[O-])c4)c(Oc4cnc5[nH]ccc5c4)c3)CC2)=C(c2ccc(Cl)cc2)C1 + Cc1nc(NC(=O)N2CCCC2C(N)=O)sc1-c1ccnc(C(C)(C)C(F)(F)F)c1 , same question.
OUTPUT: 91

INPUT: Cn1nccc1Nc1nccc(-c2ccn(C(CO)c3ccc(Cl)c(F)c3)c(=O)c2)n1 (stereo unspecified) + Cc1nc(NC(=O)N2CCCC2C(N)=O)sc1-c1ccnc(C(C)(C)C(F)(F)F)c1 , same question.
OUTPUT: 84.9

INPUT: C#Cc1c(F)ccc2cc(O)cc(-c3ncc4c(N5CC6CCC(C5)N6)nc(OCC56CCCN5CC(F)C6)nc4c3F)c12 (stereo unspecified) + Cc1nc(NC(=O)N2CCCC2C(N)=O)sc1-c1ccnc(C(C)(C)C(F)(F)F)c1 , same question.
OUTPUT: 85

INPUT: CCN1CCN(Cc2ccc(Nc3ncc(F)c(-c4cc(F)c5nc(C)n(C(C)C)c5c4)n3)nc2)CC1 + CC(Nc1ccc2c(c1)OCCn1cc(N3C(=O)OCC3C(F)F)nc1-2)C(N)=O , same question.
OUTPUT: 81.6

Taken from PubChem BioAssay AID1963961.
